- Test system: Pseudomonas aeruginosa
- Protocol summary: Antibacterial activity against Pseudomonas aeruginosa ATCC27853 strain assessed as inhibition of bacterial growth incubated for 8 hrs by CLSI protocol based microdilution assay
- Assay type: functional
Recorded metric: MIC (µg/mL)

input: Recorded MIC for `C[C@@H](O)[C@H](N)C(=O)N[C@@H](CNC(=O)CCn1cnc2cc(Cl)c(Cl)cc2c1=O)c1cccc(-c2ccc(Cl)cc2)c1` , please?
output: 4

a = C[C@@H](O)[C@H](N)C(=O)N[C@@H](CNC(=O)CCn1cnc2cc(Br)c(Cl)cc2c1=O)c1cccc(-c2ccccc2)c1
b = C[C@@H](O)[C@H](N)C(=O)N[C@@H](CNC(=O)CCn1cnc2cc(Cl)c(Cl)cc2c1=O)c1cccc(-c2ccc(C(F)(F)F)cc2)c1
input: Given a and b , report the one with the higher recorded MIC. Give the label of your selection.
output: a
(a: 16 µg/mL, b: 4 µg/mL)
